test system: HNSC; assay: growth inhibition (% activity, log2 RLU normalised to DMSO / staurosporine); higher = more growth inhibition; conditions: 33 µM
result type: growth inhibition (%)
Please give a number only; it is taken to be in %.

Recorded growth inhibition, per entry:
Returns the measured growth inhibition for the input compound. Input: CO[C@H]1/C=C/O[C@@]2(C)Oc3c(C)c(O)c4c(O)c(c(/C=N/N5CCN(C)CC5)c(O)c4c3C2=O)NC(=O)/C(C)=C\C=C\[C@H](C)[C@H](O)[C@@H](C)[C@@H](O)[C@@H](C)[C@H](OC(C)=O)[C@@H]1C
-3.9

Same read-out for CC(C)Cn1cnc2c(N)nc3ccccc3c21 ?
0.687

How about C[C@H](CCC(=O)O)[C@H]1CC[C@H]2[C@@H]3CC[C@@H]4C[C@H](O)CC[C@]4(C)[C@H]3CC[C@]12C ?
-2.18

Also C=CC[N+]1([C@H]2C[C@H]3[C@@H]4CC[C@H]5C[C@H](O)[C@@H](N6CCOCC6)C[C@]5(C)[C@H]4CC[C@]3(C)[C@H]2OC(C)=O)CCCC1 , if possible.
2.05

Another compound: NC(=O)NO
2.98

// query: COc1c(C)c2c(c(O)c1C/C=C(\C)CCC(=O)OCCN1CCOCC1)C(=O)OC2
65.5

What do you have for CN(C)c1nc(N(C)C)nc(N(C)C)n1 ?
-5.97

---
Entry under review: CC(C)c1c(C(=O)Nc2ccccc2)c(-c2ccccc2)c(-c2ccc(F)cc2)n1CC[C@@H](O)C[C@@H](O)CC(=O)O . Reported growth inhibition?
65.6
